Molecular target: UniProt P56373
Sequence (P56373 whole entry): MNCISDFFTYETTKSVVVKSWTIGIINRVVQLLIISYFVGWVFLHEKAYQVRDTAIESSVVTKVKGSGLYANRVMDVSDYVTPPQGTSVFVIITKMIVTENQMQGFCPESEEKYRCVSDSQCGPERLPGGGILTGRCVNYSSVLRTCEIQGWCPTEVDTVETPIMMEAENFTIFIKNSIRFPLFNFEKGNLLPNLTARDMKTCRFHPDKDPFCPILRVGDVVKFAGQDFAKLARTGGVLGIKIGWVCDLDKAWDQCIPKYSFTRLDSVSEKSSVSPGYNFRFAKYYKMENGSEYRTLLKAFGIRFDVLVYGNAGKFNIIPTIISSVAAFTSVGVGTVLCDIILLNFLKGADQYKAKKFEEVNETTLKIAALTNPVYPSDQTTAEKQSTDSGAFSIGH
Assay: Intracellular Calcium Measurement to Assess Antagonist Affinity (FLIPR, Fluo-4)
Conditions: cells expressing human P2X3; agonist α,β-meATP at EC50; antagonist added 10 min before agonist
Source text: Generation of a Human P2X3 and P2X2/3 Stable Cell Line—Human P2X3 receptor cDNA (Accession number NM_002559) was subcloned as a 5′XhoI and 3′HindIII fragment into the expression vector pcDNA5/FRT (Invitrogen). […] Intracellular Calcium Measurement to Assess Antagonist Affinity—A fluorescent imaging plate reader (FLIPR; Molecular Devices) was used to monitor intracellular calcium levels using the calcium-chelating dye Fluo-4 (Molecular Probes). […]
PARAMETER: pIC50
// pIC50 is dimensionless: -log10 of concentration (M)

Find the measured pIC50 of C[C@@H](NC(=O)c1cn(-c2ccc(F)cn2)nc1-c1cnoc1)c1ccc(C(F)(F)F)[n+]([O-])c1 [Example 1.103] and report it.
6.90

Find the measured pIC50 of CC(C)Cc1nn(-c2ccc(F)cn2)cc1C(=O)N[C@H](C)c1ccc(C(F)(F)F)[n+]([O-])c1 [Example 1.109] and report it.
7.47

Find the measured pIC50 of Cc1ccc(-c2nc(-c3ccccc3)c(C(=O)N[C@H](C)c3ccc(C(F)(F)F)[n+]([O-])c3)o2)nc1 [Example 2.5] and report it.
7.08

Find the measured pIC50 of C[C@@H](NC(=O)c1cn(-c2ccc(F)cn2)nc1-c1ccccc1)c1ccc(C(F)(F)F)[n+]([O-])c1 [Example 1.74] and report it.
7.28
